system_name: UniProt P16234
Sequence (P16234 whole entry): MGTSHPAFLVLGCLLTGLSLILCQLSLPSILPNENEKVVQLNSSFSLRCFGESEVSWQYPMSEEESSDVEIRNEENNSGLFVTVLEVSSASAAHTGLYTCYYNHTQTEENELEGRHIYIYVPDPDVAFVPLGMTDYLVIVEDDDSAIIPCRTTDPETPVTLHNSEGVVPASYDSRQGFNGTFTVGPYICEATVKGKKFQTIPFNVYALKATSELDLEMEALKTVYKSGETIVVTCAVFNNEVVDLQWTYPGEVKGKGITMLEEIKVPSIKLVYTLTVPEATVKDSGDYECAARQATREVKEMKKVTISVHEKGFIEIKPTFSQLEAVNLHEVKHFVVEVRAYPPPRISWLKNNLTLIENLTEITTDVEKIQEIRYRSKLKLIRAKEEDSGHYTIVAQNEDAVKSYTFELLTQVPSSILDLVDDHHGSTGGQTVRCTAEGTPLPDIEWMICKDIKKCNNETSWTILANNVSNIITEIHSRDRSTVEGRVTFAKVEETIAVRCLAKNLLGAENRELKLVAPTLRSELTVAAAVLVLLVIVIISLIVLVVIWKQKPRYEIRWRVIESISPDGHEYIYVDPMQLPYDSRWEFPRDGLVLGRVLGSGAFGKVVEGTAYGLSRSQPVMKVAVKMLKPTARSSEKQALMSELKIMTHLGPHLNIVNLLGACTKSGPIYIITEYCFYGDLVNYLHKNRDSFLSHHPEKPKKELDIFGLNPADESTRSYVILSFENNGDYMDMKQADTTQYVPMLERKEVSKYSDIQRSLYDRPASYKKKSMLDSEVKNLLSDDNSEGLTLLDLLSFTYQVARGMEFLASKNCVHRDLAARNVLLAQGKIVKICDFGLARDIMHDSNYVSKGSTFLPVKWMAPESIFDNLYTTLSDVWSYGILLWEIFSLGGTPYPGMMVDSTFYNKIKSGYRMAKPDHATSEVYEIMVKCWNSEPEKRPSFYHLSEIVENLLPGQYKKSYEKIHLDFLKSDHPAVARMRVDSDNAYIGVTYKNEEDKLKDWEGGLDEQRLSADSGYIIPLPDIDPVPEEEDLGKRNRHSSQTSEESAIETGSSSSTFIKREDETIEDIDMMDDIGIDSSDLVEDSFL
assay_name: Inhibition of PDGFRalpha (unknown origin) incubated for 1 hr by spectrophotometric analysis
pIC50: −log10 of the molar value.
readout_label: pIC50

Input `CN1C(=O)COc2c1cnc1ccc(Sc3nnc4c(F)cc(-c5cnn(C)c5)cn34)cc21` . Output pIC50: < 4.52

---

system_name: Insulin receptor (Homo sapiens)
pIC50: −log10 of the molar value.
readout_label: pIC50

Input CN1C(=O)COc2c1cnc1ccc(Sc3nnc4c(F)cc(-c5cnn(C)c5)cn34)cc21 [DALMELITINIB] . Output pIC50: < 4.52

---

system_name: Vascular endothelial growth factor receptor 2 (Homo sapiens)
readout_label: IC50

Input `CN1C(=O)COc2c1cnc1ccc(Sc3nnc4c(F)cc(-c5cnn(C)c5)cn34)cc21` . Output IC50: > 30 µM

---

system_name: Fibroblast growth factor receptor 1 (Homo sapiens, UniProt P11362)
readout_label: IC50

Input `CN1C(=O)COc2c1cnc1ccc(Sc3nnc4c(F)cc(-c5cnn(C)c5)cn34)cc21` . Output IC50: > 30 µM

---

system_name: Vascular endothelial growth factor receptor 3 (Homo sapiens)
Sequence (P35916 whole entry): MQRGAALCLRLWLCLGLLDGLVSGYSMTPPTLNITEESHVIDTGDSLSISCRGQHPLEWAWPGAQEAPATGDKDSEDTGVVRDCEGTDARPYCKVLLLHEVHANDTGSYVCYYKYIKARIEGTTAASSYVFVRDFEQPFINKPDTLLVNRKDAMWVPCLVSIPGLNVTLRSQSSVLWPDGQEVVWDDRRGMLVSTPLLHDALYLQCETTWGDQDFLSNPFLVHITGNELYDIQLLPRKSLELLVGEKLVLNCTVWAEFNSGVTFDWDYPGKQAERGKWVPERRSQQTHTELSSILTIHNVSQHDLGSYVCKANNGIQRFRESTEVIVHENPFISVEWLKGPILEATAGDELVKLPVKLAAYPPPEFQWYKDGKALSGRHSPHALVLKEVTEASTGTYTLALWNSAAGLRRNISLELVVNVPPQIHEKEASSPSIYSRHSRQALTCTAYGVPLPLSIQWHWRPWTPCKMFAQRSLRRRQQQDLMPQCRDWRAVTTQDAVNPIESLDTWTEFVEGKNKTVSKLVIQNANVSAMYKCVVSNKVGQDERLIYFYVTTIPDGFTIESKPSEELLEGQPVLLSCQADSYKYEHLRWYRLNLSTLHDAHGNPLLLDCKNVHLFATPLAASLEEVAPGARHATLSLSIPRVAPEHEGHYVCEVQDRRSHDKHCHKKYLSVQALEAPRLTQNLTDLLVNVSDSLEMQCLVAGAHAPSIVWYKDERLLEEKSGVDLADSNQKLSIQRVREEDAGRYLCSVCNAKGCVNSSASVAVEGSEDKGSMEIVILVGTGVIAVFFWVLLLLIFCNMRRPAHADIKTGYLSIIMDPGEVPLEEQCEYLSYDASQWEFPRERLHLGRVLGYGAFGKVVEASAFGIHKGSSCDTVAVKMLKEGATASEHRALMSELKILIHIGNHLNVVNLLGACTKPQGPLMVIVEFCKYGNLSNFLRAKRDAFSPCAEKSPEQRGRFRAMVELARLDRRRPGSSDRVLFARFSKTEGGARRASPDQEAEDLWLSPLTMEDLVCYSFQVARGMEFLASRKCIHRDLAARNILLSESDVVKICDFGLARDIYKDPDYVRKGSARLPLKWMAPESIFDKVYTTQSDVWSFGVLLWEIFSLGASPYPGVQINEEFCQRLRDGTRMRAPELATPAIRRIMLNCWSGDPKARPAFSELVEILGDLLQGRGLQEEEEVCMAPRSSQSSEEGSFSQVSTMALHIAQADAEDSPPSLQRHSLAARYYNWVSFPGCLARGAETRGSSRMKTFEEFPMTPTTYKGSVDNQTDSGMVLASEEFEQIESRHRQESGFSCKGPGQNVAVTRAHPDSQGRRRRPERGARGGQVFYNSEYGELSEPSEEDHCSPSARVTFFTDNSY
pIC50: −log10 of the molar value.
readout_label: pIC50

Input `CN1C(=O)COc2c1cnc1ccc(Sc3nnc4c(F)cc(-c5cnn(C)c5)cn34)cc21` . Output pIC50: < 4.52

---

system_name: Serine/threonine-protein kinase N2 (Homo sapiens)
Sequence (Q16513 whole entry): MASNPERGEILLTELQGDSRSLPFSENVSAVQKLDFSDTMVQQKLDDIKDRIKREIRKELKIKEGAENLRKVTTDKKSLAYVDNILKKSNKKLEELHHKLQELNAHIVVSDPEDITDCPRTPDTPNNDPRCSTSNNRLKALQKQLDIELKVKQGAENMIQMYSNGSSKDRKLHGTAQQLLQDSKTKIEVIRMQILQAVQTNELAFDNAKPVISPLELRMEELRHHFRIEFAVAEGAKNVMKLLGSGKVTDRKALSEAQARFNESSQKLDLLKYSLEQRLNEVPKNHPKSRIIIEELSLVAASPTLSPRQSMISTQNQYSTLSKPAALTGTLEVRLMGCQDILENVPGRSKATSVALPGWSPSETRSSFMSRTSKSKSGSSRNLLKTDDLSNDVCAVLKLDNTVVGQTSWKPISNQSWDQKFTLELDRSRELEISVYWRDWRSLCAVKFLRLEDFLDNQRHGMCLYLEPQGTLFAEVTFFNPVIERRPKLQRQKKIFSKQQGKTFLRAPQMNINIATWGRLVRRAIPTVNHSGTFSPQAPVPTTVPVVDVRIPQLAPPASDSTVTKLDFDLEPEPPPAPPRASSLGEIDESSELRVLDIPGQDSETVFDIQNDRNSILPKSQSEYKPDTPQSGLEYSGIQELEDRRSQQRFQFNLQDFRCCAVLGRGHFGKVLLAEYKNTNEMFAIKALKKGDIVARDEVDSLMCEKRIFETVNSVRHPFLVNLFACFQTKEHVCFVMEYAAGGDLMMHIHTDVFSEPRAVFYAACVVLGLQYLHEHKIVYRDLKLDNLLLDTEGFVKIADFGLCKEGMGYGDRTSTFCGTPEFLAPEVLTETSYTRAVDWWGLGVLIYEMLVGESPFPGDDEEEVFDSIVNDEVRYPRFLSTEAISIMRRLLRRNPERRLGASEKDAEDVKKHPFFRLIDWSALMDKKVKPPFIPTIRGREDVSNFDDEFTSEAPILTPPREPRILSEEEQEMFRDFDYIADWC
pIC50: −log10 of the molar value.
readout_label: pIC50

Summary: `CN1C(=O)COc2c1cnc1ccc(Sc3nnc4c(F)cc(-c5cnn(C)c5)cn34)cc21` , Serine/threonine-protein kinase N2 (Homo sapiens), pIC50 = < 4.52

---

system_name: UniProt P04629
assay_name: Inhibition of TRKA (unknown origin) incubated for 1 hr by spectrophotometric analysis
pIC50: −log10 of the molar value.
readout_label: pIC50

Summary: `CN1C(=O)COc2c1cnc1ccc(Sc3nnc4c(F)cc(-c5cnn(C)c5)cn34)cc21` , UniProt P04629, pIC50 = < 4.52

---

System: A549
assay_name: Cytotoxicity against human A549 cells assessed as reduction in cell survival incubated for 3 days by cell titre-glo assay
Type: functional, cell-based
test_settings: A549, 72 h
readout_label: IC50

CN1C(=O)COc2c1cnc1ccc(Sc3nnc4c(F)cc(-c5cnn(C)c5)cn34)cc21 = > 10 µM

Please find the next molecule below.
Input `Cn1cc(-c2ccc3nnc(Sc4ccc5ncccc5c4)n3n2)cn1` . Output IC50: > 10 µM

---

system_name: Receptor tyrosine-protein kinase erbB-4 (Homo sapiens)
assay_name: Inhibition of HER4 (unknown origin) incubated for 1 hr by spectrophotometric analysis
readout_label: IC50

Summary: `CN1C(=O)COc2c1cnc1ccc(Sc3nnc4c(F)cc(-c5cnn(C)c5)cn34)cc21` , Receptor tyrosine-protein kinase erbB-4 (Homo sapiens), IC50 = > 30 µM

---

system_name: Tyrosine-protein kinase Lck (Homo sapiens, UniProt P06239)
Sequence (P06239 whole entry): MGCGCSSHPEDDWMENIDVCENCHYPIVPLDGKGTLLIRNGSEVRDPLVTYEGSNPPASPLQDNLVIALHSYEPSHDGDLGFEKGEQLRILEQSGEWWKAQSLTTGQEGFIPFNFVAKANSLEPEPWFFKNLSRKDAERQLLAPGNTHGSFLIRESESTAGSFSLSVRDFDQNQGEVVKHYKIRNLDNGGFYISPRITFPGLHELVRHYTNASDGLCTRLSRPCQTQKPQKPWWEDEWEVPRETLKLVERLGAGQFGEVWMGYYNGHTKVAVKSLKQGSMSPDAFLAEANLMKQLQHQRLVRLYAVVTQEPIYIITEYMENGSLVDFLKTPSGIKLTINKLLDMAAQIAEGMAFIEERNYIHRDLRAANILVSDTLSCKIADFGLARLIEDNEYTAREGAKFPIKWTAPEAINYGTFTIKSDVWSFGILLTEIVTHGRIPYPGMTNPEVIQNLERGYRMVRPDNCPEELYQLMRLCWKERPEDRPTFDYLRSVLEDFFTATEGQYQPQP
readout_label: IC50

Input CN1C(=O)COc2c1cnc1ccc(Sc3nnc4c(F)cc(-c5cnn(C)c5)cn34)cc21 [DALMELITINIB] . Output IC50: > 30 µM

---

system_name: Receptor-type tyrosine-protein kinase FLT3 (Homo sapiens, UniProt P36888)
Sequence (P36888 whole entry): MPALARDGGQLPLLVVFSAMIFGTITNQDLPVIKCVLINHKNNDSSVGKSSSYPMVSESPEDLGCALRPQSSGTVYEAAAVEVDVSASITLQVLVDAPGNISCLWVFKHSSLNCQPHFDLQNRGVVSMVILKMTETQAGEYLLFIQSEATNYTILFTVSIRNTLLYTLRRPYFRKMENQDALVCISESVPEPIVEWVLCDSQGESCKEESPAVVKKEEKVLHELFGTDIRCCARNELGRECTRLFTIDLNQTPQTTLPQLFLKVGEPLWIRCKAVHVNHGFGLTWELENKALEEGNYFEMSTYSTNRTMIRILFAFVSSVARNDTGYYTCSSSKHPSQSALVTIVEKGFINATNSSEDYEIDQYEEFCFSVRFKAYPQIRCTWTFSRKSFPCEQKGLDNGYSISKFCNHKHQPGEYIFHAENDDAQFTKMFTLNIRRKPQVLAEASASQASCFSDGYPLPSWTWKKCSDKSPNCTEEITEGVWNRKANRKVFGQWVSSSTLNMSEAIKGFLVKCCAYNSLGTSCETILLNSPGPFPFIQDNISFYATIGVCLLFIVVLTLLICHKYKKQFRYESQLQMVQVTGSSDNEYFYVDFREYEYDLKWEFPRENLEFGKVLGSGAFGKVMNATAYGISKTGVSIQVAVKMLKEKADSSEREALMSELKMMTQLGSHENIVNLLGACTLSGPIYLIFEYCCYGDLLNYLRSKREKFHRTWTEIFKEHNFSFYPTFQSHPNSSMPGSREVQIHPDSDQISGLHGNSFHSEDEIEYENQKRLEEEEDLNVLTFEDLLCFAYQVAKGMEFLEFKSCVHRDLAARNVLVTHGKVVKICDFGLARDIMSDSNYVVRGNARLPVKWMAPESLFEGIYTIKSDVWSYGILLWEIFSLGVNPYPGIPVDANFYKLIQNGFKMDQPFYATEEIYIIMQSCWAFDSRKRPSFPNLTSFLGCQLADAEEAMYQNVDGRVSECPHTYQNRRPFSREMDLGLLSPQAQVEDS
pIC50: −log10 of the molar value.
readout_label: pIC50

Input `CN1C(=O)COc2c1cnc1ccc(Sc3nnc4c(F)cc(-c5cnn(C)c5)cn34)cc21` . Output pIC50: < 4.52

---

system_name: Proto-oncogene tyrosine-protein kinase ROS (Homo sapiens, UniProt P08922)
readout_label: pIC50
One number for each entry, as −log10 of the molar value.

Input `CN1C(=O)COc2c1cnc1ccc(Sc3nnc4c(F)cc(-c5cnn(C)c5)cn34)cc21` . Output pIC50: 5.55

---

system_name: Ephrin type-B receptor 2 (Homo sapiens, UniProt P29323)
Sequence (P29323 whole entry): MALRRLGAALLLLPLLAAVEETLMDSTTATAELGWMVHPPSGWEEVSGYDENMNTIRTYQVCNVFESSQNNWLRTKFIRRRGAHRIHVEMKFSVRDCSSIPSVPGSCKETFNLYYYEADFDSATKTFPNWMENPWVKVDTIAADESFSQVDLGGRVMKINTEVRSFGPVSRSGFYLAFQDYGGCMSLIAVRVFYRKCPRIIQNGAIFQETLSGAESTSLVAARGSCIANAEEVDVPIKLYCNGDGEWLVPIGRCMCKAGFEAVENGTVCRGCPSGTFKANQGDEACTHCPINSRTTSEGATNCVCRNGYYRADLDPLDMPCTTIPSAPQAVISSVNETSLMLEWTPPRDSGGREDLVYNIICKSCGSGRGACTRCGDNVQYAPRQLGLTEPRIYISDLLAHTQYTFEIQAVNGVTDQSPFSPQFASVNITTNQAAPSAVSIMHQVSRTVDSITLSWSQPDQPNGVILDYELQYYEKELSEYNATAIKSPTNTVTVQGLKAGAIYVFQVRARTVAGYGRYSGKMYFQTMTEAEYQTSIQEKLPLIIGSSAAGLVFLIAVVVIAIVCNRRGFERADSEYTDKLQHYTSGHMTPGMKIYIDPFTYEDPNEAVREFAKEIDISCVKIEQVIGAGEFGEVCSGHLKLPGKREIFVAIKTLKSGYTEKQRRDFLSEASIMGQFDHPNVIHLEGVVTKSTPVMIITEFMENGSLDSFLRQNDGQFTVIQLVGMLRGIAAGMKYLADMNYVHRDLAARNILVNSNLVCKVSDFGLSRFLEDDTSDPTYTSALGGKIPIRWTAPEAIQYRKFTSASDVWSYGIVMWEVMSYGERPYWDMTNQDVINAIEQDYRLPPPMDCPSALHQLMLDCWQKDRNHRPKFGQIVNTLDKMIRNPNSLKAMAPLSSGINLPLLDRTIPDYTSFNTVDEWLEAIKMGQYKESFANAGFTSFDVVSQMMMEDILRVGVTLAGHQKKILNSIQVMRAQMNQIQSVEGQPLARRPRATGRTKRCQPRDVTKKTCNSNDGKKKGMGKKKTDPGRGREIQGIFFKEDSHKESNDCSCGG
pIC50: −log10 of the molar value.
readout_label: pIC50

Input CN1C(=O)COc2c1cnc1ccc(Sc3nnc4c(F)cc(-c5cnn(C)c5)cn34)cc21 [DALMELITINIB] . Output pIC50: < 4.52

---

system_name: RAC-alpha serine/threonine-protein kinase (Homo sapiens, UniProt P31749)
Sequence (P31749 whole entry): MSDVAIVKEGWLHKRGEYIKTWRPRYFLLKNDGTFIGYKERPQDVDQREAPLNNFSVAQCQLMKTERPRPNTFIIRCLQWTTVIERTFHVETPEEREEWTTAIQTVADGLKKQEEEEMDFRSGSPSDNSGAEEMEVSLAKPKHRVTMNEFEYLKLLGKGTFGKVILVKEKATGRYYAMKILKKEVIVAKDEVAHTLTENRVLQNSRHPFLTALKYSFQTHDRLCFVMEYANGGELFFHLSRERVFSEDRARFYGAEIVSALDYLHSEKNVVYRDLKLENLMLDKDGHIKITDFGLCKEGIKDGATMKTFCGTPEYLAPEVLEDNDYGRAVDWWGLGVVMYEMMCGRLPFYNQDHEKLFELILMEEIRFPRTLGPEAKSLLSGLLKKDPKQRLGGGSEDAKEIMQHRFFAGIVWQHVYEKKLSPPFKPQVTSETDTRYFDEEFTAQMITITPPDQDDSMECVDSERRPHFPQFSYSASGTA
readout_label: IC50

Input CN1C(=O)COc2c1cnc1ccc(Sc3nnc4c(F)cc(-c5cnn(C)c5)cn34)cc21 [DALMELITINIB] . Output IC50: > 30 µM

---

system_name: Tyrosine-protein kinase Yes (Homo sapiens, UniProt P07947)
Sequence (P07947 whole entry): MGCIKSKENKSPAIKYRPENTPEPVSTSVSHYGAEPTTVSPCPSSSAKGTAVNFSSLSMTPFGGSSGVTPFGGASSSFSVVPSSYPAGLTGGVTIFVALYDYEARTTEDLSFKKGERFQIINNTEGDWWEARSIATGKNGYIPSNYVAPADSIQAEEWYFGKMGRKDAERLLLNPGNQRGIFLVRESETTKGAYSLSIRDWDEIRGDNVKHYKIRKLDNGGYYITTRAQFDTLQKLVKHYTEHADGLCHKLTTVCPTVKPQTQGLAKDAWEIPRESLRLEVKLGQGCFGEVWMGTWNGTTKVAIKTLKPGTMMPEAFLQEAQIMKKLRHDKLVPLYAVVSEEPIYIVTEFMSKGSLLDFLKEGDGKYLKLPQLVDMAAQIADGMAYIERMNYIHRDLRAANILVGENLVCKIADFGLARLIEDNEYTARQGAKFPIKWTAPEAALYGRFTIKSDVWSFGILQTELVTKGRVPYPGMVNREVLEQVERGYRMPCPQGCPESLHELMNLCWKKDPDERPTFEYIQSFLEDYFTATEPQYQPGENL
readout_label: IC50

Input CN1C(=O)COc2c1cnc1ccc(Sc3nnc4c(F)cc(-c5cnn(C)c5)cn34)cc21 [DALMELITINIB] . Output IC50: > 30 µM

---

assay_name: Toxicity in ig dosed nude BALB/c mouse administered as qd treated for 28 days followed by rehabilitation for 28 days
Assay type: organism-based
test_settings: in vivo, po
readout_label: NOAEL at 672 h (mg/kg/day)
Answers are plain numbers, in mg/kg/day.

Input `CN1C(=O)COc2c1cnc1ccc(Sc3nnc4c(F)cc(-c5cnn(C)c5)cn34)cc21.CS(=O)(=O)O` . Output NOAEL at 672 h: 225
